Observed biochemical activity in TT assay, in words for S30 extracts of E. coli, coupled Transcription-Translation (RNA polymerase), reported per entry below.
property_measured: biochemical activity in TT assay, in words

{"columns": ["compound_structure_string", "test_value"],
 "data": [
  ["Cc1noc(C)c1S(=O)(=O)Nc1c(N2CCC(C)CC2)c(=O)c1=O", "inactive"],
  ["Cc1noc(C)c1S(=O)(=O)Nc1c(N2CCC(N(C)CC3CCCCC3)CC2)c(=O)c1=O", "inactive"],
  ["Cc1noc(C)c1C(=O)Nc1c(N2CCC(Cc3ccccc3)CC2)c(=O)c1=O", "inactive"]
]}
